experiment: SK-BR-3 proliferation inhibitors, primary screen, cell-based, human, 24 h (AID 847); conditions: SK-BR-3 viability, CellTiter-Glo ATP luminescence, at 10 µM, active compounds read low;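 further: 100% = median untreated cell wells and 0% = median positive control drug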
About 190 (0.46%) of roughly 41,000 compounds were called active. For the sample, actives were picked, then their nearest neighbours and some compounds at random.
Items are presented alongside their recorded viability.
test.readout: viability (%)

>>> readout_number("O=C(CSc1nnnn1C1CCCC1)Nc1ccc2c(c1)OCCO2")
42.5
>>> readout_number("CCOC(=O)[C@H]1CCC[C@@H](NS(=O)(=O)c2ccc(NC(C)=O)cc2)C1")
73.8
>>> readout_number("Cc1cccc(OCc2nnc(SCC(=O)N3CCN(C(=O)c4ccco4)CC3)n2C)c1C")
112
>>> readout_number("O=C(CSc1nnnn1-c1ccc2c(c1)CCC2)Nc1ccc2c(c1)OCCO2")
86.1
>>> readout_number("N#Cc1c(NC(=O)CSc2nc3ccccc3c(=O)n2Cc2ccco2)sc2c1CCCC2")
72.2
>>> readout_number("CN(C)c1ccc(CNC23CN4CN(CN(C4)C2)C3)cc1")
99
>>> readout_number("CCOC(=O)Cn1c(SC)nc2sc3c(c2c1=O)CC(C)(C)OC3")
93.7
>>> readout_number("CCC(=O)Nc1cccc(NC(=O)CSc2nnnn2C2CCCC2)c1")
69
>>> readout_number("Cc1cnc(NC(=O)CSc2nnc(-c3ccc(Cl)cc3Cl)n2N)s1")
88.8
>>> readout_number("Cc1cccc(N2CC(C)Cn3c2nc2c3c(=O)n(CC(=O)OCc3ccccc3)c(=O)n2C)c1 (stereo not given)")
72.3

Attribution: PubChem BioAssay AID847
